experiment: Half life in Beagle dog at 10 mg/kg, po administered as single dose by LC-MS/MS analysis; format: ADME, organism-based, Canis lupus familiaris; settings: in vivo
PARAMETER: half-life (h)
Respond with the bare value in h.

Exercise: Find the recorded half-life belonging to CN1CCN(c2ccc(C(=O)Nc3n[nH]c4ccc(Cc5cc(F)cc(F)c5)cc34)c(NC3CCOCC3)c2)CC1 and report it.
Key: 15.2

###

test: Antiproliferative activity against human KARPAS299 cells incubated for 72 hrs by cell titer-glo assay; conditions: KARPAS-299, 72 h
PARAMETER: IC50
Output should be the measured figure followed by the unit it is expressed in.

Exercise: Find the recorded IC50 belonging to CN1CCN(c2ccc(C(=O)Nc3n[nH]c4ccc(Cc5cc(F)cc(F)c5)cc34)cc2)CC1 and report it.
Key: 253 nM

Exercise: Next compound up: CN1CCN(c2ccc(C(=O)Nc3n[nH]c4ccc(Cc5cc(F)cc(F)c5)cc34)c(NC3CCCCC3)c2)CC1
Key: 609 nM

Exercise: Next compound up: CN(C)CCN(C)C(=O)c1ccc(C(=O)Nc2n[nH]c3ccc(Cc4cc(F)cc(F)c4)cc23)c(NC2CCOCC2)c1
Key: 50 nM
